Each entry below lists one item and its recorded MIC value.
- Test system: Mycobacterium tuberculosis
- assayInfo: Antitubercular activity Mycobacterium tuberculosis H37Rv assessed as growth inhibition after 30 days by agar microdilution method
- Format: functional
Just the number please, in µM, no unit attached.

Example results:
compound	readingUnit	MIC
COc1ccc(/C=N/n2c(Cc3ccccc3Nc3c(Cl)cccc3Cl)nn(CN3CCOCC3)c2=S)cc1OC	µM	6.25
S=c1n(CN2CCOCC2)nc(Cc2ccccc2Nc2c(Cl)cccc2Cl)n1/N=C/c1ccncc1	µM	12.5
S=c1n(CN2CCCCC2)nc(Cc2ccccc2Nc2c(Cl)cccc2Cl)n1/N=C/c1ccccc1	µM	6.25
O=c1c2ccccc2nc2n(/N=C/c3ccccc3)c(Cc3ccccc3Nc3c(Cl)cccc3Cl)nn12	µM	12.5
S=c1n(CN2CCOCC2)nc(Cc2ccccc2Nc2c(Cl)cccc2Cl)n1/N=C/c1ccco1	µM	3.12
S=c1n(CN2CCCCC2)nc(Cc2ccccc2Nc2c(Cl)cccc2Cl)n1/N=C/c1ccco1	µM	6.25
O=C1CSC(c2ccncc2)N1n1c(Cc2ccccc2Nc2c(Cl)cccc2Cl)n[nH]c1=S (stereo unspecified)	µM	6.25
COc1ccc(/C=N/n2c(Cc3ccccc3Nc3c(Cl)cccc3Cl)nn(CN3CCCCC3)c2=S)cc1	µM	12.5

S=c1n(CN2CCCCC2)nc(Cc2ccccc2Nc2c(Cl)cccc2Cl)n1/N=C/c1cccs1 tested on Mycobacterium tuberculosis gave MIC: 12.5

S=c1n(CN2CCCCC2)nc(Cc2ccccc2Nc2c(Cl)cccc2Cl)n1/N=C/c1ccncc1 tested on Mycobacterium tuberculosis gave MIC: 12.5

S=c1n(CN2CCOCC2)nc(Cc2ccccc2Nc2c(Cl)cccc2Cl)n1/N=C/c1ccccc1 tested on Mycobacterium tuberculosis gave MIC: 0.2

S=c1n(CN2CCOCC2)nc(Cc2ccccc2Nc2c(Cl)cccc2Cl)n1/N=C/c1cccs1 tested on Mycobacterium tuberculosis gave MIC: 3.12

COc1ccc(/C=N/n2c(Cc3ccccc3Nc3c(Cl)cccc3Cl)nn(CN3CCCCC3)c2=S)cc1OC tested on Mycobacterium tuberculosis gave MIC: 6.25

O=c1c2ccccc2nc2n(/N=C/c3cccs3)c(Cc3ccccc3Nc3c(Cl)cccc3Cl)nn12 tested on Mycobacterium tuberculosis gave MIC: 12.5

COc1ccc(/C=N/n2c(Cc3ccccc3Nc3c(Cl)cccc3Cl)nn(CN3CCOCC3)c2=S)cc1 tested on Mycobacterium tuberculosis gave MIC: 6.25

###

- Test system: Mycobacterium tuberculosis
- assayInfo: Antitubercular activity Mycobacterium tuberculosis H37Rv assessed as growth inhibition after 5 days by MABA method
- Format: functional
- conditionsUsed: Mycobacterium tuberculosis, H37Rv, 120 h
Each entry below lists one item and its recorded MIC value.
Just the number please, in µM, no unit attached.

compound	measuredQuantity	readingUnit	reported
COc1ccc(/C=N/n2c(Cc3ccccc3Nc3c(Cl)cccc3Cl)nn3c(=O)c4ccccc4nc23)cc1	MIC	µM	25

For record O=c1c2ccccc2nc2n(/N=C/c3ccco3)c(Cc3ccccc3Nc3c(Cl)cccc3Cl)nn12 the listed MIC is 25

For record COc1ccc(/C=N/n2c(Cc3ccccc3Nc3c(Cl)cccc3Cl)nn(CN3CCCCC3)c2=S)cc1OC the listed MIC is 12.5

For record S=c1n(CN2CCOCC2)nc(Cc2ccccc2Nc2c(Cl)cccc2Cl)n1/N=C/c1ccco1 the listed MIC is 3.12

For record O=C1CSC(c2ccncc2)N1n1c(Cc2ccccc2Nc2c(Cl)cccc2Cl)n[nH]c1=S (stereo not given) the listed MIC is 12.5
